# measurement protocol: Pharmacokinetic evaluation in rats after intravenous or gavage administration
# Type: in vivo, SD rats
# test conditions: po, 2.5 mg/kg
Exercise: for every item that follows, state its recorded F.
Respond with the bare value in %.

Prompt line: I'd like to know its F. The molecule in question is `N#Cc1ccc2[nH]cc(CCCN3CCN(c4ncc(-c5ccc(Cl)cc5)cn4)CC3)c2c1`
Response line: 52.62

Prompt line: Item: `N#Cc1ccc2[nH]cc(CCCCN3CCN(c4ncc(-c5ccc(F)cc5)cn4)CC3)c2c1`
Response line: 78.1

Prompt line: Also, `N#Cc1ccc2[nH]cc(CCCN3CCN(c4ncc(-c5cccc(C(N)=O)c5)cn4)CC3)c2c1` please.
Response line: 39.2

Prompt line: What do we get for `N#Cc1ccc2[nH]cc(CCCN3CCN(c4ncc(-c5ccc(F)cc5)cn4)CC3)c2c1` ?
Response line: 68.48

Prompt line: Repeat with `N#Cc1ccc2[nH]cc(CCCCN3CCN(c4ncc(-c5ccc(F)cc5F)cn4)CC3)c2c1`
Response line: 66.4

Prompt line: Repeat for the following molecule: `N#Cc1ccc2[nH]cc(CCCN3CCN(c4ncc(-c5ccc(F)cc5F)cn4)CC3)c2c1`
Response line: 83.28

----------
Give measured Tmax for each item. Keep answers brief.
# measurement protocol: Pharmacokinetic evaluation in rats after intravenous or gavage administration
# Assay type: in vivo, SD rats
# test conditions: SD, rat, plasma, iv, 1 mg/kg
Use min as the unit, but write only the number.

Prompt line: Any idea what its Tmax is? The compound is `N#Cc1ccc2[nH]cc(CCCCN3CCN(c4ncc(-c5ccc(F)cc5F)cn4)CC3)c2c1`
Response line: 4.98

Prompt line: `N#Cc1ccc2[nH]cc(CCCN3CCN(c4ncc(-c5ccc(F)cc5F)cn4)CC3)c2c1` , same question.
Response line: 15

Prompt line: Consider next the compound `N#Cc1ccc2[nH]cc(CCCN3CCN(c4ncc(-c5ccc(F)cc5)cn4)CC3)c2c1` in the same way.
Response line: 8.34

Prompt line: Thanks! And `N#Cc1ccc2[nH]cc(CCCN3CCN(c4ncc(-c5ccc(Cl)cc5)cn4)CC3)c2c1` ?
Response line: 4.98

Prompt line: Also need `N#Cc1ccc2[nH]cc(CCCN3CCN(c4ncc(-c5cccc(C(N)=O)c5)cn4)CC3)c2c1` , thanks.
Response line: 4.98

Prompt line: Consider next the compound `N#Cc1ccc2[nH]cc(CCCCN3CCN(c4ncc(-c5ccc(F)cc5)cn4)CC3)c2c1` in the same way.
Response line: 8.34

----------
I'd appreciate it if you could supply IC50 values for the items below.
# target of assay: human 5-HT transporters (SERT) (Homo sapiens)
# Sequence (P31645 whole entry): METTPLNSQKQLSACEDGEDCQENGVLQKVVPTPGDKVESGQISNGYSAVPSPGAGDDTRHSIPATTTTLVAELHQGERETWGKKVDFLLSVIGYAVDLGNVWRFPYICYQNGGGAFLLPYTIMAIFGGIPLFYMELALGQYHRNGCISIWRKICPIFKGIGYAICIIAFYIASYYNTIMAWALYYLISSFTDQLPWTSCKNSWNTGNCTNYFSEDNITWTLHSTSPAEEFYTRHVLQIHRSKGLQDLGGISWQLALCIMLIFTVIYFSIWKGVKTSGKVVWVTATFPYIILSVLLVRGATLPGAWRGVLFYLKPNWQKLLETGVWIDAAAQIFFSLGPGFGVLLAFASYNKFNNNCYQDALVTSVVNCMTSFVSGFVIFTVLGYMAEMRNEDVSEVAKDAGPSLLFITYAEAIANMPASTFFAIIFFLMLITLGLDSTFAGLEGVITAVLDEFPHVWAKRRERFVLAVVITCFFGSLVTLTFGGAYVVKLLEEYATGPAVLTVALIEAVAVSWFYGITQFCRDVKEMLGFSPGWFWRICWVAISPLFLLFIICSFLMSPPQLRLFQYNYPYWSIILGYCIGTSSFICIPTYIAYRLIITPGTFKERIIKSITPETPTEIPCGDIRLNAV
I only need the number, in nM, no unit after it.

Prompt line: Name the reported IC50 value associated with the compound `N#Cc1ccc2[nH]cc(CCCCN3CCN(c4ncc(-c5cccc(C(N)=O)c5)cn4)CC3)c2c1`
Response line: 0.86

Prompt line: Entry `N#Cc1ccc2[nH]cc(CCCCN3CCN(c4ncc(-c5ccc(F)cc5)cn4)CC3)c2c1` please
Response line: 0.88

Prompt line: Follow-up entry: `N#Cc1ccc2[nH]cc(CCCCN3CCN(c4ncc(-c5ccc(Cl)cc5)cn4)CC3)c2c1`
Response line: 1.6

Prompt line: Now give it for `COc1cc(F)ccc1-c1cnc(N2CCN(CCCc3c[nH]c4ccc(C#N)cc34)CC2)nc1` too.
Response line: 0.87

Prompt line: Further, for `COc1ccccc1-c1cnc(N2CCN(CCCCc3c[nH]c4ccc(C#N)cc34)CC2)nc1` ?
Response line: 1

Prompt line: Also, `N#Cc1ccc2[nH]cc(CCCN3CCN(c4ncc(-c5ccc(F)cc5F)cn4)CC3)c2c1` please.
Response line: 0.58

Prompt line: Next record, please: `N#Cc1ccc2[nH]cc(CCCCN3CCN(c4ncc(-c5ccc(F)cc5F)cn4)CC3)c2c1`
Response line: 1.2

Prompt line: Same question for `N#Cc1ccc2[nH]cc(CCCCN3CCN(c4ncc(-c5ccc(C(N)=O)cc5)cn4)CC3)c2c1` please.
Response line: 0.79

Prompt line: Input `N#Cc1ccc2[nH]cc(CCCN3CCN(c4ncc(-c5ccc(F)cc5)cn4)CC3)c2c1`
Response line: 1.3

Prompt line: Would you mind doing `COc1cc(F)ccc1-c1cnc(N2CCN(CCCCc3c[nH]c4ccc(C#N)cc34)CC2)nc1` as well?
Response line: 0.96

----------
# measurement protocol: Pharmacokinetic evaluation in rats after intravenous or gavage administration
# Type: in vivo, SD rats
# test conditions: SD, rat, plasma, iv, 1 mg/kg
# Method: The pharmacokinetic evaluation of the compound disclosed herein in rats, dogs and monkeys was carried out in this invention, and animal information as described in Table 1. The compounds disclosed herein were administered in form of a saline solution containing 5% DMSO, 5% Kolliphor HS 15, 2% (2% HCl) and 88% Saline, or a physiological saline solution containing 10% DMSO, 10% Kolliphor HS 15 and 80% physiological saline to an animal subject. […] The above plasma was analyzed by the LC/MS/MS system. […]
Task for the reader: assign each of the following compounds its reported AUC(0-t).
The answer is to be given in ng·h/mL; state only the numeric part.

Prompt line: Record request: AUC(0-t) value, item `N#Cc1ccc2[nH]cc(CCCN3CCN(c4ncc(-c5ccc(F)cc5)cn4)CC3)c2c1`
Response line: 1180

Prompt line: Next up: `N#Cc1ccc2[nH]cc(CCCCN3CCN(c4ncc(-c5ccc(F)cc5)cn4)CC3)c2c1`
Response line: 1010

Prompt line: Follow-up item: `N#Cc1ccc2[nH]cc(CCCN3CCN(c4ncc(-c5ccc(F)cc5F)cn4)CC3)c2c1`
Response line: 1340

Prompt line: Quick one: `N#Cc1ccc2[nH]cc(CCCCN3CCN(c4ncc(-c5ccc(F)cc5F)cn4)CC3)c2c1`
Response line: 643

Prompt line: Please answer likewise for `N#Cc1ccc2[nH]cc(CCCN3CCN(c4ncc(-c5ccc(Cl)cc5)cn4)CC3)c2c1`
Response line: 1870

Prompt line: What about `N#Cc1ccc2[nH]cc(CCCN3CCN(c4ncc(-c5cccc(C(N)=O)c5)cn4)CC3)c2c1` ?
Response line: 722

----------
# measurement protocol: Pharmacokinetic evaluation in rats after intravenous or gavage administration
# Type: in vivo, SD rats
# test conditions: SD, rat, plasma, po, 2.5 mg/kg
recorded metric: Tmax

Prompt line: Tell me the measured Tmax of `N#Cc1ccc2[nH]cc(CCCCN3CCN(c4ncc(-c5ccc(F)cc5F)cn4)CC3)c2c1` , please.
Response line: 1 h

Prompt line: Now try `N#Cc1ccc2[nH]cc(CCCN3CCN(c4ncc(-c5ccc(F)cc5F)cn4)CC3)c2c1` .
Response line: 5 h

Prompt line: Here is the next compound: `N#Cc1ccc2[nH]cc(CCCCN3CCN(c4ncc(-c5ccc(F)cc5)cn4)CC3)c2c1`
Response line: 2.67 h

Prompt line: Would you mind doing `N#Cc1ccc2[nH]cc(CCCN3CCN(c4ncc(-c5ccc(F)cc5)cn4)CC3)c2c1` as well?
Response line: 4 h

Prompt line: What do you get for `N#Cc1ccc2[nH]cc(CCCN3CCN(c4ncc(-c5cccc(C(N)=O)c5)cn4)CC3)c2c1` ?
Response line: 0.833 h

Prompt line: Same for `N#Cc1ccc2[nH]cc(CCCN3CCN(c4ncc(-c5ccc(Cl)cc5)cn4)CC3)c2c1`
Response line: 5.67 h

----------
# measurement protocol: Pharmacokinetic evaluation in rats after intravenous or gavage administration
# Format: in vivo, SD rats
# test conditions: SD, rat, plasma, po, 2.5 mg/kg
half-life vs 4 h: less than gives met; not less than gives not met.

Prompt line: Input N#Cc1ccc2[nH]cc(CCCCN3CCN(c4ncc(-c5ccc(F)cc5F)cn4)CC3)c2c1 [Example 13] ; condition: half-life strictly below 4 h. Does it hold?
Response line: not met

Prompt line: // same read-out, input: N#Cc1ccc2[nH]cc(CCCN3CCN(c4ncc(-c5cccc(C(N)=O)c5)cn4)CC3)c2c1 [Example 2]
Response line: met

Prompt line: What do we get for N#Cc1ccc2[nH]cc(CCCN3CCN(c4ncc(-c5ccc(F)cc5)cn4)CC3)c2c1 [Example 8] ?
Response line: not met

Prompt line: Let us now turn to N#Cc1ccc2[nH]cc(CCCN3CCN(c4ncc(-c5ccc(F)cc5F)cn4)CC3)c2c1 [Example 14]
Response line: not met

Prompt line: Now consider N#Cc1ccc2[nH]cc(CCCCN3CCN(c4ncc(-c5ccc(F)cc5)cn4)CC3)c2c1 [Example 7] and answer again.
Response line: not met

----------
For each of the compounds below, state its AUC(0-inf).
# measurement protocol: Pharmacokinetic evaluation in rats after intravenous or gavage administration
# Assay type: in vivo, SD rats
# test conditions: SD, rat, plasma, po, 2.5 mg/kg
Write the numeric value and follow it with the unit.

Prompt line: # query: AUC(0-inf) of entry N#Cc1ccc2[nH]cc(CCCCN3CCN(c4ncc(-c5ccc(F)cc5)cn4)CC3)c2c1 [Example 7]
Response line: 2010 ng·h/mL

Prompt line: Also, N#Cc1ccc2[nH]cc(CCCCN3CCN(c4ncc(-c5ccc(F)cc5F)cn4)CC3)c2c1 [Example 13] please.
Response line: 1160 ng·h/mL

Prompt line: Please answer likewise for N#Cc1ccc2[nH]cc(CCCN3CCN(c4ncc(-c5cccc(C(N)=O)c5)cn4)CC3)c2c1 [Example 2]
Response line: 767 ng·h/mL

Prompt line: Next record, please: N#Cc1ccc2[nH]cc(CCCN3CCN(c4ncc(-c5ccc(F)cc5)cn4)CC3)c2c1 [Example 8]
Response line: 2070 ng·h/mL

Prompt line: What do you have for N#Cc1ccc2[nH]cc(CCCN3CCN(c4ncc(-c5ccc(F)cc5F)cn4)CC3)c2c1 [Example 14] ?
Response line: 3130 ng·h/mL
